tested.on: Ubiquitin carboxyl-terminal hydrolase 1 (Homo sapiens) (UniProt O94782)
Sequence (O94782 whole entry, looked up): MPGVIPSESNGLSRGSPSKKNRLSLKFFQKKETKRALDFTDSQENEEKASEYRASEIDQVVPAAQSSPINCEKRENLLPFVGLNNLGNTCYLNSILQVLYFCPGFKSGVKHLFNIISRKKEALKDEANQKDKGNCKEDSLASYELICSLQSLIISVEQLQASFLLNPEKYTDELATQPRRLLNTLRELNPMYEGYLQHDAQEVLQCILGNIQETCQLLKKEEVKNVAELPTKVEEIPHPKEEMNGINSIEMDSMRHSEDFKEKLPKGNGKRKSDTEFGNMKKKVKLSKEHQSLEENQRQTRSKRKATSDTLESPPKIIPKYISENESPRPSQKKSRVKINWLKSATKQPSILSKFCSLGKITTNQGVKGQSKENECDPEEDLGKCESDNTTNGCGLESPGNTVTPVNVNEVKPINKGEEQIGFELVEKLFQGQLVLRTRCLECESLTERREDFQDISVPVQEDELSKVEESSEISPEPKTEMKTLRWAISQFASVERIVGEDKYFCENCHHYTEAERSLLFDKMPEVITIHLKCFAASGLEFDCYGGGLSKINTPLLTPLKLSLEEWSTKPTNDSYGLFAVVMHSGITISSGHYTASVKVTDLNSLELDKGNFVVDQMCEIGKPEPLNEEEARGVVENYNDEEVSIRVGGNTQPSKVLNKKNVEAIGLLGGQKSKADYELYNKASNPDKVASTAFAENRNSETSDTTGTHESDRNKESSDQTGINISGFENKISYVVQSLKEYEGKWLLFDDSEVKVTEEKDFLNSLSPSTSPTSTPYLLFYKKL
experiment: Inhibitors of USP1/UAF1: SAR in Primary Assay
condition.notes: Recombinant USP1/UAF1, Ub-Rhodamine cleavage fluorescence; series mostly up to 57.1 µM
Inconclusive results are not listed. The source made the active and inactive calls. Calls follow the shape of the dose curve; as a rule, active = well fitted inhibition curve with a large enough effect; inconclusive = small, poorly fitted or top-dose-only effect; inactive = flat fitted curve, though single readings scatter.
// classify into 1 (yes) (active), 0 (no) (inactive)

Answer briefly: the call reported for Cc1cnc(-c2ccccc2C(C)C)nc1NCC1CN(c2cccnc2)C1 in this assay.
1 (yes)

Answer briefly: the call reported for Cc1cnc(-c2ccccc2C(F)F)nc1NCc1ccc(-n2ccnn2)cc1 in this assay.
1 (yes)

Answer briefly: the call reported for CSc1ccccc1-c1ncc(C)c(NCc2ccc(-c3cccnc3)cc2)n1 in this assay.
1 (yes)

Answer briefly: the call reported for Cc1cnc(-c2ccccc2OC(C)C)nc1NCc1ccc(-n2ccnn2)cc1 in this assay.
1 (yes)

Answer briefly: the call reported for Fc1cnc(-c2ccccc2C(F)F)nc1NCC1CCN(c2cnccn2)CC1 in this assay.
1 (yes)

Answer briefly: the call reported for Cc1cc(NCc2ccc(-c3cccnc3)cc2)nc(-c2ccccc2C(C)C)n1 in this assay.
1 (yes)

Answer briefly: the call reported for Cc1nc(NCc2ccc(-c3cccnc3)cc2)c2ccccc2n1 in this assay.
0 (no)

Answer briefly: the call reported for Cc1cnc(-c2ccccc2C(C)C)nc1NCc1ccc(-c2cccc(S(N)(=O)=O)c2)cc1 in this assay.
1 (yes)

Answer briefly: the call reported for FC(F)(F)c1ccccc1-c1nc(NCc2ccc(C3CCCCC3)cc2)c2ccccc2n1 in this assay.
1 (yes)

Answer briefly: the call reported for CC(=O)c1ccccc1-c1ncc(C)c(NCc2ccc(-c3cccnc3)cc2)n1 in this assay.
1 (yes)

// provenance: PubChem BioAssay AID651605
